Please respond with reported CC50 for every item in the list.
assaySummary: in vitro
measurementConditions: human, uninfected SupT1 cells

Here's what some known entries look like.
[
  {
    "compound": "CC1(C)Cc2cccc(OC(C)(C)C(=O)Nc3nc4ccccc4s3)c2O1",
    "CC50": "> 90 µM"
  },
  {
    "compound": "CC(C)(C)OC(=O)N1CCC(CNC(=O)c2cnc(NC(=O)COc3cccc4c3OC(C)(C)C4)s2)C1 (stereo not shown)",
    "CC50": "> 90 µM"
  },
  {
    "compound": "CC1(C)Cc2cccc(OCC(=O)Nc3nc(C(=O)N4CCCCC4)cs3)c2O1",
    "CC50": "> 90 µM"
  },
  {
    "compound": "Cc1csc(N(C(=O)COc2cccc3c2OC(C)(C)C3)c2cncnc2)n1",
    "CC50": "> 125 µM"
  },
  {
    "compound": "CC1(C)Cc2cccc(OCC(=O)Nc3cncc4ccccc34)c2O1",
    "CC50": "> 100 µM"
  },
  {
    "compound": "COc1ccccc1OCC(=O)Nc1nc2ccccc2s1",
    "CC50": "> 100 µM"
  }
]

Respectfully, I request CC50 for each entry included below.
1. Cc1cnc(NC(=O)COc2cccc3c2OC(C)(C)C3)cc1C
2. Cc1cccnc1CN(C(=O)COc1cccc2c1OC(C)(C)C2)c1ccc(C2CC2)c(C)n1
3. Cc1nc(NC(=O)C(Cc2ccccc2)Oc2cccc3c2OC(C)(C)C3)ccc1C1CC1 (racemic)
4. Cc1cc(C)nc(NC(=O)COc2cccc3c2OC(C)(C)C3)c1

A)
> 125 µM
> 125 µM
> 125 µM
> 125 µM

Entry source: patent US20220411419A1
